Test system: SK-OV-3 ovarian
Test summary: NCI tumour cell line growth inhibition, 48 h
Quantity measured: GI50

Answered examples (4):
Entry smiles: COC(=O)c1ccc2c(c1)C(=O)c1c-2n(CCCN=[N+]=[N-])c(=O)c2cc([N+](=O)[O-])ccc12
Target system: SK-OV-3 ovarian
GI50: 35.3 µM

Entry smiles: COc1cccc(COc2cc(-n3cnc4ccccc43)sc2C(N)=O)c1
Target system: SK-OV-3 ovarian
GI50: > 16.2 µM

Entry smiles: N=C(N)c1ccc(-c2ccc(-c3cc(Cl)cc(Cl)c3)s2)s1
Target system: SK-OV-3 ovarian
GI50: 3.62 µM

Entry smiles: Cc1c2c(cc[n+]1Cc1ccc(F)cc1)c1ccc(OCc3cccc(F)c3)cc1n2Cc1cccc(F)c1
Target system: SK-OV-3 ovarian
GI50: 1.81 µM

Now, please, on to the next compound.
Bench note, SK-OV-3 ovarian: `COc1ccc(C(=O)c2nc3ccccc3n2CC(=O)c2ccc(Cl)cc2)cc1` , GI50 reads 10.4 µM
